- System: replicating M. tuberculosis H37Rv
- experiment-notes: microbe, parasite or virus in culture
- Format: cell-based
- stated-conditions: Mycobacterium tuberculosis, H37RV, None = inhibition did not reach 90%, read-out: Against Replicating Mtb IC90 (uM, GFP)
Examples of compounds with documented IC90 follow.

# annotated cases, reported IC90 shown
compound=Fc1ccc(CSc2nnc(-c3ccc(Cl)cc3)o2)cc1 assay_target="replicating M. tuberculosis H37Rv" result="> 500 µM"
compound=c1ccc(CSc2nnc(-c3ccncc3)o2)nc1 assay_target="replicating M. tuberculosis H37Rv" result="> 500 µM"

Lab request: please report IC90 under test system replicating M. tuberculosis H37Rv for Fc1ccc(CSc2nnc(-c3ccncc3)o2)cc1
> 500 µM

Lab request: please report IC90 under test system replicating M. tuberculosis H37Rv for COCCSc1nnc(-c2ccncc2)o1
> 500 µM

Lab request: please report IC90 under test system replicating M. tuberculosis H37Rv for CN1CCCCC1COc1nnc(-c2ccc(Cl)cc2)o1 (stereo not drawn)
> 500 µM

Lab request: please report IC90 under test system replicating M. tuberculosis H37Rv for c1ccc(-c2nnc(NCc3ccccn3)o2)cc1
> 500 µM
